Readings of GI50 for the listed molecules
Tested on: SR
Assay: NCI tumour cell line growth inhibition, 48 h
Calls of active or inactive are those of the source. Cut-off read from the data, not from the text of the source: active = GI50 up to about 1.1 µM and inactive = higher.

MOLECULE	EXPERIMENTAL VALUE
O=C1/C(=C/c2cc3c(=O)c4ccccc4sc3s2)NC(=S)N1c1ccccc1	12.8 µM (inactive)

GI50 in this record for O=C1OC(CC(=O)c2ccc(F)cc2)C(Cl)=C1Cl (stereo not given) : 27.2 µM (inactive)

GI50 in this record for CC(=O)O[C@H]1C=CC23OC(=O)[C@]1(C)[C@H]2[C@H](C(=O)O)C12CC(=O)[C@@](CO)(CC[C@H]13)C2 : > 100 µM (inactive)

GI50 in this record for COC(=O)c1ccc(NCC2=CC(=O)C=CC2=O)cc1O : > 100 µM (inactive)

GI50 in this record for CCCCc1ccc(Nc2nc(S)c3ncn(COCCO)c3n2)cc1 : 24 µM (inactive)

GI50 in this record for Cc1cccc(C(C)(C)C)c1NC(=O)C(C#N)C1=C(Cl)C(=O)c2ccccc2C1=O (stereo not given) : 3.38 µM (inactive)

GI50 in this record for O=Cc1cc2c(cc1-c1cc3c(cc1C=O)OCO3)OCO2 : 21 µM (inactive)

GI50 in this record for COC(=O)C1=Cc2c(cc(OC)c(OC)c2OC)[C@H](c2ccc(OC)c(OC)c2OC)C1C(=O)OC (stereo not given in full) : 46.7 µM (inactive)

GI50 in this record for CN(C(=O)c1ccc(Cl)cc1)C(=S)N1CCN(c2ccccn2)CC1 : > 100 µM (inactive)

====

System: NCI-H460
Assay: NCI tumour cell line growth inhibition, 48 h
Calls of active or inactive are those of the source. Cut-off read from the data, not from the text of the source: active = GI50 up to about 1.1 µM and inactive = higher.
Readings of GI50 for the listed compounds

Some entries whose results are on file:
COMPOUND	GI50
O=C1CCCC/C1=C\c1ccc(Cl)c(Cl)c1	20.1 µM (inactive)
C1CCSCCCCSCCCCSCCCCSC1	> 100 µM (inactive)
COc1cccc(/C(C=O)=C(\Cl)c2ccc(OC)c(OC)c2)c1	13.3 µM (inactive)
COC1CC(O[C@H]2CC[C@@]3(C)[C@@H](CC[C@]4(O)[C@@H]3CC[C@]3(C)[C@@H](C(C)=O)[C@H](OC(=O)CC(C)C)[C@@H](OC(=O)c5ccccc5)[C@@]34O)C2)OC(C)C1OC1CC(OC)C(OC2OC(C)C(O)C(OC)C2O)C(C)O1 (some centres not stated)	9.53 µM (inactive)
Cc1cc(C#N)c(Nc2ccc(F)cc2[N+](=O)[O-])s1	> 100 µM (inactive)

GI50 in this record for COc1ccc2c(c1OC)C(=O)c1cnccc1C2=O : > 100 µM (inactive)

GI50 in this record for FC(F)(F)c1ccc2c(c1)nc(Cc1ccc(Cl)cc1)n2CC1CCCN2CCCCC12 (configuration not stated) : 7.66 µM (inactive)

====

System: M19-MEL
Assay: NCI tumour cell line growth inhibition, 48 h
Calls of active or inactive are those of the source. No stated cut-off is given here; in the data, active = GI50 up to about 1.1 µM and inactive = higher.
MEASURED PROPERTY: GI50

> print(dat)
                                   compound  measured.property   experimental.value
1  COc1cccc(NC(=O)C(=O)C2C=CCS2(=O)=O)c1 (stereo unspecified)               GI50  > 100 µM (inactive)
2  Cc1ccc(S(=O)OC2C3CC4CC(C3)CC2C4)cc1 (stereo unspecified)               GI50  > 100 µM (inactive)
3  O=C(Nc1cc(Cl)c(Cl)cc1Cl)C(=O)C1C(=O)NC(=S)NC1=O               GI50  > 100 µM (inactive)
4  COc1ccc(-c2c(N)[n+]([O-])c3ccccc3[n+]2[O-])cc1OC               GI50  > 100 µM (inactive)
5  CC1=C2N3C[C@@H](n4c(=O)n(C)c(=O)n43)C23CCC1n1c(=O)n(C)c(=O)n13               GI50  > 100 µM (inactive)
6  CN(C)CC1CCCCCCCCCC(CN(C)C)C1=O (stereo unspecified)               GI50   63.1 µM (inactive)
7  C/C(=N\NC(=O)C[N+](C)(C)C)c1sc(-c2cccnc2)nc1C               GI50  > 100 µM (inactive)
8  NC(CCCNc1ccc(O)cc1)C(=O)O (stereo unspecified)               GI50   18.2 µM (inactive)

GI50 in this record for COc1ccc(/C=N/NC(=O)c2sc(=S)n(-c3ccccc3)c2N)cc1 : > 100 µM (inactive)

GI50 in this record for [N-]=[N+]=N/C1=C/CCCCC(=O)C1 : > 100 µM (inactive)

GI50 in this record for C=C1C=CC2(Br)OC3CC(C)(Cl)C(Br)CC13C2(C)C (stereo unspecified) : 21.5 µM (inactive)

GI50 in this record for COc1cccc(/C(C=O)=C(\Cl)c2ccc(OC)c(OC)c2)c1 : 11.3 µM (inactive)

GI50 in this record for COC(OC)C(C)CC(=O)N(C)C (stereo unspecified) : > 100 µM (inactive)

====

System: OVCAR-5
Assay: NCI tumour cell line growth inhibition, 48 h
Activity calls are given as the source filed them. Rule as the data show it: active = GI50 up to about 1.1 µM and inactive = higher.
Readings of GI50 for the listed molecules

Some entries whose results are on file:
MOLECULE	GI50
COc1ccc2c(c1)C(=O)C(=O)c1cc(O)c(OC)c(OC)c1-2	1.12 µM (inactive)
[N-]=[N+]=Nc1ccc2c(c1)Sc1ccccc1N2CCCCN1CCN(Cc2ccc(C(=O)c3ccc(CSCC(N)C(=O)O)cc3)cc2)CC1 (centres undefined)	52.4 µM (inactive)
CCC(=O)COc1ccc(NC(NC(=O)C(C(F)(F)F)C(F)(F)F)(C(F)(F)F)C(F)(F)F)cc1	46.8 µM (inactive)

Would you kindly look at the next entry?
GI50 in this record for CCCCCCCCCCCCC/C=C/[C@@H](O)[C@H](COC1OC(CO)C(OC2OC(CO)C(O)C(OC3(C(=O)O)CC(O)C(NC(C)=O)C(C(O)C(O)CO)O3)C2O)C(O)C1O)N=[N+]=[N-] (some centres undefined) : 56 µM (inactive)

====

Tested on: HCT-15
MEASURED PROPERTY: GI50

Some entries whose results are on file:
> print(dat)
                            smiles.notation  experimental.value
1  COc1ccc2[nH]c3c([N+](=O)[O-])ccc(NCCN(C)C)c3/c(=N/CCN(C)C)c2c1             1.31 µM
2  CC1=C(C(=O)N[C@@H](CC(C)C)C(=O)O)N2C(=O)[C@@H](NC(=O)[C@@H](N)Cc3ccccc3)[C@H]2SC1            > 100 µM
3  CC(=O)O[C@H]1C=CC23OC(=O)[C@]1(C)[C@H]2[C@H](C(=O)O)C12CC(=O)[C@@](CO)(CC[C@H]13)C2            > 100 µM

Would you kindly look at the next entry?
GI50 in this record for COC(=O)c1ccc(/C=C/c2cc(O)ccc2O)cc1 : 3.01 µM

====

Test system: NCI-H226
Assay: NCI tumour cell line growth inhibition, 48 h
The source made the active and inactive calls. No stated cut-off is given here; in the data, active = GI50 up to about 1.1 µM and inactive = higher.
Readings of GI50 for the listed compounds

Some entries whose results are on file:
COMPOUND	GI50
Cc1cn(C2CC(n3cc(Cn4cc(I)c(=O)[nH]c4=O)nn3)C(CO)O2)c(=O)[nH]c1=O (stereo not given)	> 100 µM (inactive)
CCCCCCCCCCCCC/C=C/[C@@H](O)[C@H](COC1OC(CO)C(OC2OC(CO)C(O)C(OC3(C(=O)O)CC(O)C(NC(C)=O)C(C(O)C(O)CO)O3)C2O)C(O)C1O)N=[N+]=[N-] (stereo not given in full)	20.8 µM (inactive)
COC(CN(C=O)[C@@H](c1ccc(Cl)cc1)c1cc2ccccc2o1)OC	18.1 µM (inactive)
O=C(NCCCl)Nc1cccnc1	15.7 µM (inactive)
COc1ccc2c(=O)oc3c(OC)cc(CCN(C)C)c4c(=O)oc1c2c34	17.9 µM (inactive)
Cc1cc(C)c2c(=O)n(CC(O)CN3CCN(c4ncccn4)CC3)sc2n1 (stereo not given)	96.8 µM (inactive)
Cn1c(=O)c(-c2ccccc2)c(O)c2ccccc21	> 100 µM (inactive)
CCOC(=O)c1c2cccccc-2nc1Nc1cccc2c(C)ccnc12	> 10 µM (inactive)
N=C(NC(=N)Nc1ccc(S(=O)(=O)Nc2cnc3ccccc3n2)cc1)Nc1ccc(Br)cc1	> 100 µM (inactive)
CC1(C)Cc2nc3c(cc2C(=O)C1/C=N/C(C#N)=C(\N)C#N)C(=O)C(/C=N/C(C#N)=C(\N)C#N)C(C)(C)C3 (stereo not given)	2.84 µM (inactive)

GI50 in this record for Cc1cc(O)c2c(c1)C(=O)C=C(Br)C2=O : 19.2 µM (inactive)
